- Test system: OVCAR-8 ovarian
- testDetails: NCI-60 one-dose screen, 48 h
- runConditions: 10 µM unless noted
The panel holds about 83,000 compounds, 20% with a hit somewhere; the sample as a whole holds those more often. Active and inactive are the calls of the source. How the source made its calls: active means growth percent below 10; inactive means the rest.
API: response.call in active, inactive

Look over these answered cases.
Data request: Kindly provide the recorded test outcome for the following molecule: O=C(CNC(=O)c1cccc2ccccc12)Nc1ccccc1Cc1ccccc1
Data returned: inactive

Data request: Kindly provide the recorded test outcome for the following molecule: O=C(CSc1ncc(-c2ccccc2)n1-c1ccccc1)Nc1ccc(-c2nc3ccccc3s2)cc1
Data returned: inactive

Data request: Kindly provide the recorded test outcome for the following molecule: COc1cnc2c(c1)C(=O)c1c-2n(CCCN2CCCC2)c(=O)c2cc(F)ccc12
Data returned: active

Data request: Kindly provide the recorded test outcome for the following molecule: COc1ccc(C2=NN(C(N)=S)C(c3ccc4c(c3)OCO4)C2)cc1 (stereo unspecified)
Data returned: inactive

Data request: Kindly provide the recorded test outcome for the following molecule: COC(=O)C1(NC(=O)CNC(=O)OCc2ccccc2)CCCC1
Data returned: inactive

More entries:
Data request: Kindly provide the recorded test outcome for the following molecule: CN(C)c1ccc(-c2nc3ncc(Br)cc3o2)cc1
Data returned: inactive

Data request: Kindly provide the recorded test outcome for the following molecule: N#CSCC1CC(O)(c2ccccc2)C(c2ccccc2)C(c2ccc(Cl)cc2)O1 (stereo unspecified)
Data returned: active

Data request: Kindly provide the recorded test outcome for the following molecule: CC12CCC3C(=CCc4cc(O)ccc43)C1CCC2=O (stereo unspecified)
Data returned: inactive

Data request: Kindly provide the recorded test outcome for the following molecule: COc1ccc2c(c1)sc1nc(-c3ccc(N(C)C)cc3)cn12
Data returned: inactive

Data request: Kindly provide the recorded test outcome for the following molecule: CSc1nc(-c2ccc(O)cc2O)c2c(=O)[nH]c(Nc3ccc(S(=O)(=O)Nc4nc(C)cc(C)n4)cc3)nc2n1
Data returned: inactive

Data request: Kindly provide the recorded test outcome for the following molecule: O=C1C=CC(=O)N1c1ccccn1
Data returned: inactive

Data request: Kindly provide the recorded test outcome for the following molecule: CCOC(CNCc1cc(C)c2[nH]c3ccccc3c2c1C)OCC
Data returned: inactive

Data request: Kindly provide the recorded test outcome for the following molecule: CCCCNCCCN(CCCC)CCCNCCCC
Data returned: inactive

Data request: Kindly provide the recorded test outcome for the following molecule: C/C=C(/C(=C/C)c1ccc(O)cc1)c1ccc(O)cc1
Data returned: inactive

Data request: Kindly provide the recorded test outcome for the following molecule: Nc1nc(Nc2ccccc2SSc2ccccc2Nc2nc(N)nc(-c3cccc(Cl)c3)n2)nc(-c2cccc(Cl)c2)n1
Data returned: inactive

Data request: Kindly provide the recorded test outcome for the following molecule: COc1ccc(C2=NN(C(C)=O)C(c3c(C)nn(-c4ccccc4)c3N3CCOCC3)C2)cc1 (stereo unspecified)
Data returned: inactive
